The origin of these recorded values is the DeepSol protein solubility set.

Assay: soluble on expression in E. coli; label from the status in PepcDB or PDB records
observedProperty: soluble on expression in E. coli

MGSDKIHHHHHHMTRQCHPLATVVDACAPLRFAPLPDLRLRSFTRSGDQGDAGQWCRADLLAAKNAFAPVYDGFVAATRPGHRLPAATHFLRAVFREPIFLVAAGLYLTGRAPLLDASHLWFPVRADRTLGTPMLTELKVAVTADDRFAGHPETVTFPGSDDVVRAAAHAMVAAFTPVIDALSAHTRVGKRTLWGWVLDTAHFYMLNPARFLGRDAQAAWALANRLADALLEAGAVTRARPRLFPFCDNHPRGTWAVRGTCCFDYKGDPEHGYCTTCPHKCDNERRNELQEWLRNPALAP    not soluble
MGSDKIHHHHHHKDPVINDLKDSEGNNISFTLNAPNNSSYTLMPENASSIIDIFTCEQPDYGFAAGVTYTVQVCEGGTEFEKFESLPTTGSGEKVLIKTFELNDAMNNLGMVNPTVAYNVDFRLKAFINDSVPELYSNTVNMAITPYSGARTQVYFVGDIFDNGWNNNDPSMRIFADDDVNNMLFTYTGFVKAGSAFKIIQTPGDWGIQWGYDSDGALSNDGGSGNIEGFTQDGYYTITLDLAGNKYSIEPYTGATTEYKQISLIGDFNDWGGDLDLQQASYDKHIWIGEKIEIPSDGGLKLRADHDWAVSFGGSNSLWNDKQGQFAKFDGGDNVKVSAGTYFIKFNDLTKHIILLAE    not soluble
